Record form. Attribute: IC50. Fill in for each entry.
# Test system: A549
# ASSAY NAME: Cytotoxicity against human A549 cells assessed as reduction in cell viability after 48 hrs by SRB assay
# Type: functional, cell-based
# CONDITIONS USED: A549, 48 h
Number in µM, nothing else.

Please report IC50 with A549 for item C=C(C)[C@@H]1CC[C@]2(C(=O)O)CC[C@]3(C)[C@H](CC[C@@H]4[C@@]5(C)C/C(=C\c6cccnc6)C(=O)C(C)(C)[C@@H]5CC[C@]43C)[C@@H]12 .
3.1

Report IC50 from A549 testing of C=C(C)[C@@H]1CC[C@]2(C(=O)O)CC[C@]3(C)[C@H](CC[C@@H]4[C@@]5(C)C/C(=C\c6ccc(OC)cc6)C(=O)C(C)(C)[C@@H]5CC[C@]43C)[C@@H]12
5.1

* * *

Please provide measured pIC50 for the entries that follow.
# Test system: A549
# ASSAY NAME: Cytotoxicity against human A549 cells assessed as reduction in cell viability after 48 hrs by SRB assay
# Type: functional, cell-based
# CONDITIONS USED: A549, 48 h
Just so you know, pIC50 here is -log10 of the concentration in molar units; reply with that number alone.

Consider the compound C=C(C)[C@@H]1CC[C@]2(C(=O)O)CC[C@]3(C)[C@H](CC[C@@H]4[C@@]5(C)C/C(=C\c6cccc(Br)c6)C(=O)C(C)(C)[C@@H]5CC[C@]43C)[C@@H]12 . State its measured pIC50.
5.52

State its pIC50: C=C(C)[C@@H]1CC[C@]2(C(=O)O)CC[C@]3(C)[C@H](CC[C@@H]4[C@@]5(C)C/C(=C\c6cccc([N+](=O)[O-])c6)[C@H](O)C(C)(C)[C@@H]5CC[C@]43C)[C@@H]12
5.91

For the compound C=C(C)[C@@H]1CC[C@]2(C(=O)O)CC[C@]3(C)[C@H](CC[C@@H]4[C@@]5(C)C/C(=C\c6cccc(Br)c6)[C@H](O)C(C)(C)[C@@H]5CC[C@]43C)[C@@H]12 , report pIC50.
5.44

Give a short answer stating reported pIC50 for C=C(C)[C@@H]1CC[C@]2(C(=O)O)CC[C@]3(C)[C@H](CC[C@@H]4[C@@]5(C)C/C(=C\c6ccc(F)cc6)C(=O)C(C)(C)[C@@H]5CC[C@]43C)[C@@H]12 .
5.59

Kindly indicate its recorded pIC50. Item: C=C(C)[C@@H]1CC[C@]2(C(=O)O)CC[C@]3(C)[C@H](CC[C@@H]4[C@@]5(C)C/C(=C\c6ccc(F)c(Br)c6)C(=O)C(C)(C)[C@@H]5CC[C@]43C)[C@@H]12
5.41

Name the recorded pIC50 of the compound listed here: C=C(C)[C@@H]1CC[C@]2(C(=O)O)CC[C@]3(C)[C@H](CC[C@@H]4[C@@]5(C)C/C(=C\c6ccc(F)cc6)[C@H](O)C(C)(C)[C@@H]5CC[C@]43C)[C@@H]12
5.40

Identify the reported pIC50 for the following entry. C=C(C)[C@@H]1CC[C@]2(C(=O)O)CC[C@]3(C)[C@H](CC[C@@H]4[C@@]5(C)C/C(=C\c6ccsc6)C(=O)C(C)(C)[C@@H]5CC[C@]43C)[C@@H]12
5.41

Give the reported value of pIC50 for this record: C=C(C)[C@@H]1CC[C@]2(C(=O)O)CC[C@]3(C)[C@H](CC[C@@H]4[C@@]5(C)C/C(=C\c6ccc(Br)o6)C(=O)C(C)(C)[C@@H]5CC[C@]43C)[C@@H]12
5.54

Fill in pIC50 for record C=C(C)[C@@H]1CC[C@]2(C(=O)O)CC[C@]3(C)[C@H](CC[C@@H]4[C@@]5(C)CCC(=O)C(C)(C)[C@@H]5CC[C@]43C)[C@@H]12
5.24
